// values below are reported solubility
- method.summary: Solubility in sodium phosphate buffer at pH 7.4
- Assay type: physicochemical
Value expressed in µg/mL; do not type the unit.

Look over these answered cases.
compound	unit.abbrev	solubility
CS(=O)(=O)NC(=O)CCCCCCCCCCCNC(=O)NC12CC3CC(CC(C3)C1)C2	µg/mL	10
CCCCCCCCC(NC(=O)CCCCCCCCCCCNC(=O)NC12CC3CC(CC(C3)C1)C2)C(=O)N[C@H]1O[C@@H](CO)[C@H](O)[C@@H](O)[C@@H]1O (some centres not stated)	µg/mL	38
CCCCOC(=O)CCCCCCCCCCCNC(=O)NC12CC3CC(CC(C3)C1)C2	µg/mL	5

Shift focus to the following entry.
// recorded solubility for CC(C)OC(=O)CCCCCCCCCCCNC(=O)NC12CC3CC(CC(C3)C1)C2 : 7
